- experimentalSystem: UniProt P00533
- Sequence (P00533 25-1210): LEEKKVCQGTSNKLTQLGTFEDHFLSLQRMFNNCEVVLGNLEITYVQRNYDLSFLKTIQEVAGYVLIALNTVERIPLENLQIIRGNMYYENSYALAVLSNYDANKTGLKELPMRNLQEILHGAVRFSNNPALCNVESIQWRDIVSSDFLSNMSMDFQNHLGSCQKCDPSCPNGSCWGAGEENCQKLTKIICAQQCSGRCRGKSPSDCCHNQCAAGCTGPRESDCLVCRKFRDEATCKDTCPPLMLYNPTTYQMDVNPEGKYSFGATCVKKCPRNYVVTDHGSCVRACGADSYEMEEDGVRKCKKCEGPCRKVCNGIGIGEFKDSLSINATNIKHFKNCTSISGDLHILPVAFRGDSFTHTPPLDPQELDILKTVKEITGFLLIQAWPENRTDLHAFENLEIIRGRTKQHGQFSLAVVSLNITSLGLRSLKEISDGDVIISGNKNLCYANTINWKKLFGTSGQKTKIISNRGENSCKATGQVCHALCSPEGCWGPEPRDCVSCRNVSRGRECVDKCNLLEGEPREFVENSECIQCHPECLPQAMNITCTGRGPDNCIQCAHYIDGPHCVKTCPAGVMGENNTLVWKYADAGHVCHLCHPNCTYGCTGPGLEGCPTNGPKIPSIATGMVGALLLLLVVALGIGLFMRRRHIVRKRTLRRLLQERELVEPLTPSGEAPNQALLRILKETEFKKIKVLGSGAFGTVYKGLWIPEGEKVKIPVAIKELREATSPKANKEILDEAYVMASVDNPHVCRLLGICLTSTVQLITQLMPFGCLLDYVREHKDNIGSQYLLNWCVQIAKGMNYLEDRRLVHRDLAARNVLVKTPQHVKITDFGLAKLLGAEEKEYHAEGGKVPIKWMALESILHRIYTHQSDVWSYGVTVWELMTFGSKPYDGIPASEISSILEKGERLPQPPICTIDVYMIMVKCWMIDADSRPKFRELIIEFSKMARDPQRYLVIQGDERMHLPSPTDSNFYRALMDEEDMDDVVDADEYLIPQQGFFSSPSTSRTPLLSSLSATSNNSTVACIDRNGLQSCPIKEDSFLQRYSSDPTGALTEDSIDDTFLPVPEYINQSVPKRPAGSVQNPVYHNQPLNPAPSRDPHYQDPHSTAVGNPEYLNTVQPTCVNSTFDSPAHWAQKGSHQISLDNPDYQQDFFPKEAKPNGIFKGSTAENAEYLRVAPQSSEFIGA
- methodSummary: EGFR signaling (pEGFR Tyr1068/total EGFR MSD) in A431 cells
- Type: cell-based
- Design: endogenous in cells; host or cells: A431, N87
- condition: ratio A431 pEGFR EC50 to BT474 pHER2 EC50
recordedEndpoint: Selectivity A431 EC50/BT474 EC50

Guide cases for Selectivity A431 EC50/BT474 EC50, answers given:
{"compound": "O=C(/C=C/CN1CC2C(CO)C2C1)N1CCc2c(sc3ncnc(Nc4ccc(Oc5ccc6ncnn6c5)c(Cl)c4)c23)C1 (stereo not shown)", "Selectivity A431 EC50/BT474 EC50": "C (C: ≥ 10 and < 20)"}
{"compound": "Cc1ccc(Oc2ccc(Nc3ncnc4sc5c(c34)CCN(C(=O)/C=C/CN3CCC(O)C(C)(C)C3)C5)cc2C)cn1 (stereo not shown)", "Selectivity A431 EC50/BT474 EC50": "B (B: ≥ 20 and < 100)"}
{"compound": "COc1cc(Nc2ncnc3sc4c(c23)CCN(C(=O)/C=C/CN(C)C)C4)ccc1Oc1ccccc1", "Selectivity A431 EC50/BT474 EC50": "D (D: ≥ 5 and < 10)"}
{"compound": "COc1ccc(Oc2ccc(Nc3ncnc4sc5c(c34)CCN(C(=O)/C=C/CN3CCOCC3)C5)cc2C)cn1", "Selectivity A431 EC50/BT474 EC50": "C (C: ≥ 10 and < 20)"}

Endpoint output: Selectivity A431 EC50/BT474 EC50 of C=CC(=O)N1CCc2[nH]c3ncnc(Nc4ccc(Oc5ccc6ncnn6c5)c(C)c4)c3c2C1 . Value? C (C: ≥ 10 and < 20)

Try this compound too: Cc1ccc(Oc2ccc(Nc3ncnc4sc5c(c34)CCN(C(=O)/C=C/CN3C4CCC3CC4)C5)cc2C)cn1 D (D: ≥ 5 and < 10)

Okay, and Cc1cc(Nc2ncnc3sc4c(c23)CN(C(=O)/C=C/CN(C)C)CC4)ccc1Oc1ccc2ncnn2c1 ? B (B: ≥ 20 and < 100)
